Study System: T1, cynoNectin4-mFc (cyno, UniProt A0A2K5WES1 32-349)
T1 construct: Immobilized on the SPR chip; also called cyanoNectin4; not shown: mFc (mouse Fc)
T1 sequence: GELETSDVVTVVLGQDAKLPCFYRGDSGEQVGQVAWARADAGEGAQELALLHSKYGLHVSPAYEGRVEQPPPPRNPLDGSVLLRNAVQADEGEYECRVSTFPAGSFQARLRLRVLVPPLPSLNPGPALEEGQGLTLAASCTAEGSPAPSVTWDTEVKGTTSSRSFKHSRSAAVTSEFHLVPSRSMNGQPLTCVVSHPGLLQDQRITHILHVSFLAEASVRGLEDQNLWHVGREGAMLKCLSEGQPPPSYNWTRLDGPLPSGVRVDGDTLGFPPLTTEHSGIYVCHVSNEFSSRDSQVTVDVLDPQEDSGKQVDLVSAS
Run Description: SPR, cynoNectin4-mFc immobilized, pH 6.0
Kindly state pKd for each of the entries shown.
Here pKd is given on a logarithmic scale as minus log10 of the concentration in mol/L.

Prompt line: For the binder BAP-143-06-33-16 (antibody, V domains shown, Used as a conjugate with a linker payload (CAB ADC)) VH: EVQLVQSGAEVKKPGATVKISCKVSGFTFSSYNMNWIRQSPSRGLEWLGYISSSSSTIYYADSVKGRFTISRDNSKNTLYLQMNSLRAEDTAVYYCARAYYYGDDVWGQGTLVTVSS VL: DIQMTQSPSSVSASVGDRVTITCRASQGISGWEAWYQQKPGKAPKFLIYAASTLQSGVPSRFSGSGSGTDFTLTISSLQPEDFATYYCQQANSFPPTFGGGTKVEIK , what pKd is on record?
Response line: 9.73

Prompt line: Proceed to BAP-143-00-01 (antibody, V domains shown, Used as a conjugate with a linker payload (CAB ADC)) VH: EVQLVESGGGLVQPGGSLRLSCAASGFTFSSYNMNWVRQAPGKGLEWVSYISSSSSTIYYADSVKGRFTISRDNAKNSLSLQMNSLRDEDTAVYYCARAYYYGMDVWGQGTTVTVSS VL: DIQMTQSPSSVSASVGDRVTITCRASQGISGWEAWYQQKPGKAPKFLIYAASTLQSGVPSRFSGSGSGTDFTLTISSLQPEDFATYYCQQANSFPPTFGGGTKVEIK
Response line: 8.73
